# tgt: hACAT-2 (Homo sapiens, UniProt O75908)
# Construct: microsomal fraction used
# Sequence (O75908 1-522): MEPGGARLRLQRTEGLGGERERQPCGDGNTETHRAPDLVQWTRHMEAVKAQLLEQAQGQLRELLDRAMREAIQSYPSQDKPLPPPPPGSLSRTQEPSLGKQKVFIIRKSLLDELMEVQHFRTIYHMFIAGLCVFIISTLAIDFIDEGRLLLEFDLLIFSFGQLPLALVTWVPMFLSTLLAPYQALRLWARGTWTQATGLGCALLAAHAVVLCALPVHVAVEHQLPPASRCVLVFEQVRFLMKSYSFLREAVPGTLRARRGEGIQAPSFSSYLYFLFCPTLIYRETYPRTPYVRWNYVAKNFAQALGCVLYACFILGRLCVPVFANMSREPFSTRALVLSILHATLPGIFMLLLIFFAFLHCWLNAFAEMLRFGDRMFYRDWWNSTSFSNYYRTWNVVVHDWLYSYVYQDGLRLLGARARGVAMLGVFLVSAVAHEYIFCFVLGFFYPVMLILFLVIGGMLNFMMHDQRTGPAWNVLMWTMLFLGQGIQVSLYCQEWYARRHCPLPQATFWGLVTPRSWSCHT
# assay-procedure: ACAT activity, microsomal fraction of Hi5 cells over-expressing hACAT-2
pIC50: −log10 of the molar value.
# if value of pIC50 reaches 4, tag YES; if it stays below, tag NO

* CC(C)c1cc2c(cc1O)[C@@]1(C)CCC[C@@](C)(CO)C1CC2 (some centres unmarked) [R = hydroxymethyl, 18-hydroxyferruginol] | YES
* C=C1CCC2[C@](C)(CO)CCC[C@]2(C)[C@H]1CC/C(C)=C\CO (some centres unmarked) | NO
* C=C[C@@]1(C)CC[C@H]2C(=CC[C@@H]3[C@]2(C)CCC[C@@]3(C)C(=O)O)C1 | NO
* COC(OC)[C@]1(C)CCC[C@]2(C)c3cc(O)c(C(C)C)cc3CCC12 (some centres unmarked) | NO
* CC(C)c1ccc2c(c1)CC[C@H]1[C@](C)(CO)CCC[C@]21C [Dehydroabietinol, dehydroabietinol] | YES
* CC(C)c1cc2c(cc1O)[C@@]1(C)CCC[C@@](C)(C=O)C1CC2 (some centres unmarked) | YES
* COC(=O)[C@]1(C)CCC[C@]2(C)c3cc(O)c(C(C)C)cc3CCC12 (some centres unmarked) | NO

* * *

# Test system: LDL
# assay-procedure: Anti-oxidative activity to LDL by TBARS method (Cu2+ mediated LDL-oxidation)
# Assay type: biochemical, human
# settings: 37° C. 4 hours, MDA by TBARS
measurement-name: IC50 (µM)

- CC(C)(Sc1cc(C(C)(C)C)c(O)c(C(C)(C)C)c1)Sc1cc(C(C)(C)C)c(O)c(C(C)(C)C)c1: 1.55
